Origin of measurements: ChEMBL document CHEMBL5724914

assay: The drug is tested on Z-012 corresponding to metagenome with ENA study accession number: PRJEB37062 and ENA sample accession number: ERS12561812 for biotransformation under anaerobic condition. The drug concentrations were measured over 9 timepoints collected between 0 and 24 hours of incubation by liquid-chromatography-coupled mass spectrometry (LC–MS); conditions: 2 µM; further: call rule not given here
ENDPOINT: Bacterial Biotransformation

Ask: Field request: Bacterial Biotransformation | item: OC(CCN1CCCCC1)(c1ccccc1)C1CCCCC1 (centres undefined)
Reply: Compound NOT metabolized

Ask: Entry under review: Cc1ccnc2c1NC(=O)c1cccnc1N2C1CC1 . Reported Bacterial Biotransformation?
Reply: Compound NOT metabolized

Ask: So what's the measured Bacterial Biotransformation for this one? CC(C)(C)NC[C@H](O)COc1ccccc1C1CCCC1.CC(C)(C)NC[C@H](O)COc1ccccc1C1CCCC1.O=S(=O)(O)O [PENBUTOLOL SULFATE]
Reply: Compound NOT metabolized

* * *

settings: human gut metagenome, 24 h, 2 µM
ENDPOINT: Bacterial Biotransformation

Consider the worked cases shown below.
Ask: Find the recorded Bacterial Biotransformation belonging to CC(C)c1c(C(=O)Nc2ccccc2)c(-c2ccccc2)c(-c2ccc(F)cc2)n1CC[C@@H](O)C[C@@H](O)CC(=O)O and report it.
Reply: Compound metabolized

Ask: Reported Bacterial Biotransformation, molecule C=CCN1CC[C@]23c4c5ccc(O)c4O[C@H]2C(=O)CC[C@@]3(O)[C@H]1C5 : ____
Reply: Compound NOT metabolized

Ask: Can you look up the measured Bacterial Biotransformation of C=CCc1ccccc1OCC(O)CNC(C)C (stereo not drawn) for me?
Reply: Compound metabolized

Ask: Would you kindly share the measured Bacterial Biotransformation for Cc1ccc(S(=O)(=O)NC(=O)NN2CCCCCC2)cc1 [TOLAZAMIDE] ?
Reply: Compound metabolized

Ask: Can you share its Bacterial Biotransformation? I mean this molecule: CC(=O)OCC(=O)[C@@]12N=C(C)O[C@@H]1C[C@H]1[C@@H]3CCC4=CC(=O)C=C[C@]4(C)[C@H]3[C@@H](O)C[C@@]12C
Reply: Compound metabolized

Ask: Reported Bacterial Biotransformation for COCCc1ccc(OCC(O)CNC(C)C)cc1.COCCc1ccc(OCC(O)CNC(C)C)cc1.O=C(O)C(O)C(O)C(=O)O (stereo not drawn) [METOPROLOL TARTRATE] : what is it?
Reply: Compound metabolized

Ask: Sample NC12CC3CC(CC(C3)C1)C2 — what was its Bacterial Biotransformation?
Reply: Compound NOT metabolized

Lab note: next molecule to report on.
Ask: Please look up its Bacterial Biotransformation: CN1CCN(CC/C=C2/c3ccccc3Sc3ccc(S(=O)(=O)N(C)C)cc32)CC1
Reply: Compound metabolized

* * *

details: human gut metagenome, 24 h, 2 µM
ENDPOINT: Bacterial Biotransformation

Ask: Which Bacterial Biotransformation is listed for Cc1nc(-c2ccc(OCC(C)C)c(C#N)c2)sc1C(=O)O [FEBUXOSTAT] ?
Reply: Compound metabolized

Ask: For the compound COc1ccc2c3c1O[C@H]1C[C@@H](O)C=C[C@@]31CCN(C)C2 [GALANTAMINE] , what Bacterial Biotransformation is on record?
Reply: Compound metabolized

Ask: # lookup: Bacterial Biotransformation of CN1CCN(C2=Nc3cc(Cl)ccc3Nc3ccccc32)CC1 [CLOZAPINE]
Reply: Compound metabolized

Ask: Name the recorded Bacterial Biotransformation for CC(=O)O[C@]1(C(C)=O)CC[C@H]2[C@@H]3C=C(Cl)C4=CC(=O)[C@@H]5C[C@@H]5[C@]4(C)[C@H]3CC[C@@]21C [CYPROTERONE ACETATE] .
Reply: Compound metabolized

Ask: Give the measured Bacterial Biotransformation of CC(C)(C#N)c1cc(Cn2cncn2)cc(C(C)(C)C#N)c1 [ANASTROZOLE] .
Reply: Compound metabolized

Further cases:
Ask: // query Bacterial Biotransformation value for entry Cc1cc2c(cc1S(N)(=O)=O)S(=O)(=O)CCC2
Reply: Compound NOT metabolized
